- testDetails: logP (acidic, pH 2.3, and neutral)
- Assay type: physicochemical
- conditionSet: pH 2.3, acidic; read-out: logP sauer
measurementKind: logD

* Cc1cc(Oc2ccc(Cl)c(Br)c2)c(C)cc1N=CN1CCCCC1 [Nr. 16] | 2.66
* CCCN(C)C=Nc1cc(C)c(Oc2cc(F)cc(Br)c2)cc1C [Nr. 14] | 2.37
* CCN(C)C=Nc1cc(C)c(Oc2ccc(Cl)c(Br)c2)cc1C [Nr. 15] | 2.23
* Cc1cc(Oc2cc(Br)cc(Br)c2)c(C)cc1N=CN(C)C(C)C [Nr. 5] | 2.62
* CCN(C)C=Nc1cc(C)c(Oc2cc(Cl)cc(Br)c2)cc1C [Nr. 6] | 2.56
* Cc1cc(Oc2cc(F)cc(Cl)c2)c(C)cc1N=CN1CCCCC1 [Nr. 9] | 2.42
* Cc1cc(Oc2cc(F)cc(Br)c2)c(C)cc1N=CN1CCCC1 [Nr. 13] | 2.37
* Cc1cc(Oc2cc(F)cc(Cl)c2)c(C)cc1N=CN1CCCC1 [Nr. 10] | 2.26
* CCN(C)C=Nc1cc(C)c(Oc2cc(F)cc(I)c2)cc1C [Nr. 19] | 2.4
* Cc1cc(Oc2ccc(Cl)c(I)c2)c(C)cc1N=CN1CCCCC1 [Nr. 26] | 2.52
